target: CB1 cannabinoid receptor (Rattus norvegicus); construct: membranes were prepared from rat forebrain membranes; from tissue; host or cells: rat forebrain; assay: CB1 receptor binding, rat forebrain membranes, [3H] CP-55,940 displacement; settings: ratio of CB2 Ki to CB1 Ki
Sequence (P20272 whole entry): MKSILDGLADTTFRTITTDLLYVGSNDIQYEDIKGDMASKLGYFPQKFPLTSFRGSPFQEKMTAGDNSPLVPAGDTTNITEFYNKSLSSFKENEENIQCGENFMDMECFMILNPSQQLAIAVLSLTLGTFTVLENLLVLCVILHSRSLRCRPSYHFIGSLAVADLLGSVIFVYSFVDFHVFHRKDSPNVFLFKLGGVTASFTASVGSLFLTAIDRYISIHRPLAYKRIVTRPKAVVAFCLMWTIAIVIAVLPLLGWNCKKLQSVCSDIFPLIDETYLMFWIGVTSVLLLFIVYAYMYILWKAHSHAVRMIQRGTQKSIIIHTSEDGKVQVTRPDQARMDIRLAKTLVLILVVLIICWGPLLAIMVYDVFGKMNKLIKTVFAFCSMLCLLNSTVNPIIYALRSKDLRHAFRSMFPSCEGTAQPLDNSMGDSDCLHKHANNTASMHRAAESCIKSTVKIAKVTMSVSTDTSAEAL
reported_endpoint: selectivity CB1

These solved cases illustrate the format of a correct answer.
Exercise: State selectivity CB1 on CB1 cannabinoid receptor (Rattus norvegicus). Entry: O=C(NN1CCCCC1)c1nn(-c2ccc(Cl)cc2Cl)c(-c2ccc(-c3cccnc3)cc2)c1CF [Compound 1-6]
Solution: 128

Exercise: State selectivity CB1 on CB1 cannabinoid receptor (Rattus norvegicus). Entry: O=C(NN1CCCCC1)c1nn(-c2ccc(Cl)cc2Cl)c(-c2ccc(Br)cc2)c1CO [Compound 3-3]
Solution: 10.6

Exercise: State selectivity CB1 on CB1 cannabinoid receptor (Rattus norvegicus). Entry: Cc1c(C(=O)NN2CCCCC2)nn(-c2ccc(Cl)cc2Cl)c1-c1ccc(C(=O)O)cc1 [Compound 3-24]
Solution: 1.3

Now look at this one.
Exercise: State selectivity CB1 on CB1 cannabinoid receptor (Rattus norvegicus). Entry: Cc1c(NC(=O)N(C)C2CCCCC2)nn(-c2ccc(Cl)cc2Cl)c1-c1ccc(Br)cc1 [Compound 3-11]
Solution: 31.6

---

Task for the reader: assign each of the following compounds its reported Ki.
molecular target: CB2 receptor (Mus musculus); construct: membranes were prepared from frozen mouse spleen; from tissue; host or cells: mouse spleen; assay: CB2 receptor binding, mouse spleen membranes, same manner as the CB1 binding assay; conditions: mouse spleen membranes, [3H] CP-55,940; read-out: affinities Ki CB2
Sequence (P47936 whole entry): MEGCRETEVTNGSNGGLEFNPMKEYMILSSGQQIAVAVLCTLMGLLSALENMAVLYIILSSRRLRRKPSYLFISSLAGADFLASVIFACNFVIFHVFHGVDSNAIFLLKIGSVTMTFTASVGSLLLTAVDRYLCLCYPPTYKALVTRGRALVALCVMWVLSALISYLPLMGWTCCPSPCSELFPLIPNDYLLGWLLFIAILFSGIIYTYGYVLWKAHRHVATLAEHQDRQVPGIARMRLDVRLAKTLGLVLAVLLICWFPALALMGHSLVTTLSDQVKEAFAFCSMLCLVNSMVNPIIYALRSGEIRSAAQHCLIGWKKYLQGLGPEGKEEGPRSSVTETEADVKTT
Numbers only, in nM.

Exercise: Tell me Ki reported for Cc1c(C(=O)NC2CCCCC2)nn(-c2ccc(Cl)cc2Cl)c1-c1ccc(-c2nnnn2C)cc1
Solution: 1070

Exercise: Tell me Ki reported for CCOCc1c(C(=O)NC2CCCCC2)nn(-c2ccc(Cl)cc2Cl)c1-c1ccc(Br)cc1
Solution: 842

Exercise: Tell me Ki reported for Cc1c(C(=O)N(C)C2CCCCC2)nn(-c2ccc(Cl)cc2Cl)c1-c1ccc(-c2nnn(C)n2)cc1
Solution: 551

Exercise: Tell me Ki reported for Cc1c(C=Cc2ccccc2)nn(-c2ccc(Cl)cc2Cl)c1-c1ccc(Br)cc1 [Compound 1-24]
Solution: 10600

Exercise: Tell me Ki reported for O=C(NN1CCCCC1)c1nn(-c2ccc(Cl)cc2Cl)c(-c2ccc(-c3nnn[nH]3)cc2)c1CO
Solution: 13600

Exercise: Tell me Ki reported for CNCc1c(C(=O)NC2CCCCC2)nn(-c2ccc(Cl)cc2Cl)c1-c1ccc(Br)cc1
Solution: 397

I need Ki for every entry listed below, if you could help.
1. CN(C)CCOCc1c(C(=O)NC2CCCCC2)nn(-c2ccc(Cl)cc2Cl)c1-c1ccc(Br)cc1
2. Cc1c(C(=O)N(C)C2CCCCC2)nn(-c2ccc(Cl)cc2Cl)c1-c1ccc(-c2nnnn2C)cc1
3. O=C(Nc1nn(-c2ccc(Cl)cc2Cl)c(-c2ccc(Br)cc2)c1CO)NC1CCCCC1
4. Cn1nnc(-c2ccc(-c3c(CO)c(C(=O)NC4CCCCC4)nn3-c3ccc(Cl)cc3Cl)cc2)n1

Solution:
1: 140; 2: 941; 3: 4920; 4: 36.5

I need Ki for every entry listed below, if you could help.
1. N#Cc1ccc(-c2c(CO)c(C(=O)NN3CCCCC3)nn2-c2ccc(Cl)cc2Cl)cc1
2. O=C(NN1CCCCC1)c1nn(-c2ccc(Cl)cc2Cl)c(-c2ccc(-c3cccnc3)cc2)c1CO [Compound 3-21]
3. O=C(NN1CCCCC1)c1nn(-c2ccc(-c3cccnc3)cc2Cl)c(-c2ccc(-c3cccnc3)cc2)c1CO [Compound 3-20]
4. Cn1nnnc1-c1ccc(-c2c(CO)c(C(=O)NC3CCCCC3)nn2-c2ccc(Cl)cc2Cl)cc1
5. Cc1c(C(=O)NC2CCCCC2)nn(-c2ccc(Cl)cc2Cl)c1-c1ccc(-c2nnn(C)n2)cc1
6. Cc1c(NC(=O)N2CCCCC2)nn(-c2ccc(Cl)cc2Cl)c1-c1ccc(Br)cc1

Solution:
1: 2740; 2: 207; 3: 1680; 4: 122; 5: 381; 6: 284
